# Test: clinical
# Format: in vivo, human
# Assay conditions: human, plasma, po, 80 mg; read-out: mean AUC0–48h
Measurement type: AUC(0-t) (ng·h/mL)
Give a bare numeral; the unit ng·h/mL is implied.

Enquiry: Item O=C(/C=C\n1cnc(-c2cc(C(F)(F)F)cc(C(F)(F)F)c2)n1)NNc1cnccn1 [selinexor, Selinexor] has what recorded AUC(0-t)?
Return: 5800
